Target: AQ variant of truncated human STING protein, amino acids 155-379 (Homo sapiens (Human), UniProt Q86WV6, G230A/H232R/R293Q)
Sequence (Q86WV6 155-379 G230A/H232R/R293Q): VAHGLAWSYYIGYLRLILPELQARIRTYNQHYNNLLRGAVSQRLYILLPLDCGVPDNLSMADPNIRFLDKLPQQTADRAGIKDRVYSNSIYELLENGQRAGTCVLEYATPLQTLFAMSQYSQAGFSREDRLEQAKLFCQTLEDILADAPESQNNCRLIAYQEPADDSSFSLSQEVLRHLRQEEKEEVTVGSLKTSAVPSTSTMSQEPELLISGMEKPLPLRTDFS
Assay: Human AQ STING [3H] 2′,3′-cGAMP scintillation proximity competition binding assay
Conditions: read-out: Human AQ Binding IC50
pIC50: −log10 of the molar value.
ENDPOINT NAME: pIC50

As a guide, the following entries are already answered.
{"COMPOUND": "Nc1nc2c(ncn2[C@@H]2O[C@@H]3COP(=O)(S)OCCn4c(nc5cncnc54)COP(=O)(S)O[C@@H]2[C@@H]3F)c(=O)[nH]1 (single isomer, unassigned) [Example 1C]", "OBS VALUE": "> 6.00"}
{"COMPOUND": "COCc1ncc2nc3n(c2n1)CCOP(=O)(S)OC[C@H]1O[C@@H](n2cnc4c(=O)[nH]c(N)nc42)[C@H](OP(=O)(S)OC3)[C@@H]1F (stereo partly drawn) [Example 40C]", "OBS VALUE": "5.00 to 6.00"}
{"COMPOUND": "Nc1nc2c(ncn2[C@@H]2O[C@@H]3COP(=O)(O)OCCCn4c(nc5cncnc54)COP(=O)(O)O[C@@H]2[C@@H]3O)c(=O)[nH]1", "OBS VALUE": "4.00 to 5.00"}
{"COMPOUND": "Nc1nc2c(ncn2[C@@H]2O[C@@H]3COP(=O)(S)OCCn4c(nc5cncnc54)COP(=O)(S)O[C@@H]2[C@H]3F)c(=O)[nH]1 (single isomer, unassigned) [Example 25D]", "OBS VALUE": "> 6.00"}
{"COMPOUND": "Nc1nc2c(ncn2[C@@H]2O[C@@H]3COP(=O)(S)OCCn4c(nc5c(N)ncnc54)COP(=O)(S)O[C@@H]2[C@@H]3F)c(=O)[nH]1 (single isomer, unassigned) [Example 7C]", "OBS VALUE": "> 6.00"}

Requested read-out: pIC50. Entry: Nc1ncnc2c1ncn2[C@@H]1O[C@@H]2COP(=O)(S)OCCn3c(nc4cncnc43)COP(=O)(S)O[C@@H]1[C@@H]2O (stereo partly drawn)
4.00 to 5.00

Next compound: CO[C@H]1[C@H]2OP(=O)(S)OCc3nc4cncnc4n3CCOP(=O)(S)OC[C@H]1O[C@H]2n1cnc2c(=O)[nH]c(N)nc21 (single isomer, unassigned) [Example 27B]
5.00 to 6.00

Then what about the compound Nc1nc2c(ncn2[C@@H]2O[C@@H]3COP(=O)(O)OCCn4c(nc5cncnc54)COP(=O)(O)O[C@@H]2[C@@H]3F)c(=O)[nH]1 ?
5.00 to 6.00

Lookup Nc1nc2c(ncn2[C@@H]2O[C@@H]3COP(=O)(S)OCCCn4c(nc5cncnc54)COP(=O)(S)O[C@@H]2[C@@H]3O)c(=O)[nH]1 (stereo partly drawn)
5.00 to 6.00

Param item: Nc1nc2c(ncn2[C@@H]2O[C@@H]3COP(=O)(S)OCCn4c(nc5cncnc54)COP(=O)(S)O[C@@H]2C3(F)F)c(=O)[nH]1 (stereo partly drawn) [Example 36D]
5.00 to 6.00

Check Nc1nc2c(ncn2[C@@H]2O[C@@H]3COP(=O)(S)OCCn4c(nc5c(N)ncnc54)COP(=O)(S)O[C@@H]2[C@@H]3F)c(=O)[nH]1 (single isomer, unassigned) [Example 7B] too.
5.00 to 6.00

Try Nc1nc2c(ncn2[C@@H]2O[C@@H]3COP(=O)(S)OCCn4c(nc5cncnc54)COP(=O)(S)O[C@@H]2[C@@H]3F)c(=O)[nH]1 (single isomer, unassigned) [Example 1D] next.
> 6.00

Same question, Nc1nc2c(ncn2[C@@H]2O[C@@H]3COP(=O)(O)OCCn4c(nc5cncnc54)COP(=O)(O)O[C@@H]2[C@@H]3O)c(=O)[nH]1 this time
5.00 to 6.00

Repeat for the following compound: Nc1nc2ncn([C@@H]3O[C@@H]4COP(=O)(S)OCCn5c(nc6cc(Cl)cnc65)COP(=O)(S)O[C@@H]3[C@@H]4F)c2c(=O)[nH]1 (single isomer, unassigned) [Example 13B]
4.00 to 5.00

Record: Nc1nc2c(ncn2[C@@H]2O[C@@H]3COP(=O)(S)OCCn4c(nc5c(N)ncnc54)COP(=O)(S)O[C@@H]2[C@@H]3F)c(=O)[nH]1 (single isomer, unassigned) [Example 7D]
> 6.00

// provenance: patent US11161864B2
